# SYSTEM_TESTED: human CB2R (Homo sapiens, UniProt P34972)
# Construct: host or cells: CHO cells
# Sequence (P34972 whole entry): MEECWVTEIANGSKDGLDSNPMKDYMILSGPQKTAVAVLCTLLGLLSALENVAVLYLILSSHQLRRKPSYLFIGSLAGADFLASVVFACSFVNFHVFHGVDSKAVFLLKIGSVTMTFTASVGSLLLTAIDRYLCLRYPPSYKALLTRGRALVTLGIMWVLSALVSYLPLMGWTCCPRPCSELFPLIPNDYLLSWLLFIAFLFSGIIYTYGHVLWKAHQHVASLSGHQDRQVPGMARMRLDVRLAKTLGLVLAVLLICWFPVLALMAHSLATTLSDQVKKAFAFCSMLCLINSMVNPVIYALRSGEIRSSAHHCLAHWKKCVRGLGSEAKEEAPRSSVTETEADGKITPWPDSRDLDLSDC
# ASSAY_COMMENT: CB2R mediated modulation of cAMP synthesis
# Assay type: cell-based
# CONDITION_SET: 0.5 h; CHO cells expressing human CB2R; cAMP inhibited by 1 uM CP55940 defined as 100%; read-out: Agonist Efficacy (%)
Below is a list of entries, each paired with its recorded Emax value.

# COMPOUND, Emax / %
data = [
    ("O=C(Nc1ccc(C(F)(F)F)cc1)N1CCCN(C(=O)C2CCC(F)(F)CC2)CC1 [Compound 78]", 87),
    ("O=C(CC1CCCC1)N1CCCN(C(=O)Nc2ccc(Br)c(C(F)(F)F)c2)CC1 [Compound 132]", 104),
    ("O=C(Nc1ccc(SC(F)(F)F)cc1)N1CCCN(C(=O)C2CCOCC2)CC1 [Compound 81]", 96),
    ("CC(C)c1ccc(NC(=O)N2CCCN(C(=O)C3CCCCC3)CC2)cc1 [Compound 34]", 102),
    ("CC(C)c1ccc(NC(=O)N2CCCN(C(=O)c3ccc(Cl)cc3)CC2)cc1 [Compound 41]", 95),
    ("CCCCCc1ccc(NC(=O)N2CCCN(C(=O)CC3CCCC3)CC2)cc1 [Compound 49]", 73),
    ("CC(C)(C)c1cnc(NC(=O)N2CCCN(C(=O)C3CCC(O)CC3)CC2)s1 (centres unmarked) [Compound 173]", 111),
    ("CC(C)(C)c1cc(NC(=O)N2CCCN(C(=O)C3CCCCC3)CC2)no1 [Compound 153]", 104),
    ("CC(C)(C)c1cc(NC(=O)N2CCCN(C(=O)c3ccc(Cl)cc3)CC2)no1 [Compound 141]", 101),
    ("O=C(Nc1nc2c(s1)CCCC2)N1CCCN(C(=O)c2ccc(Cl)cc2)CC1 [Compound 168]", 101),
    ("CC(C)(C)c1ccc(NC(=O)N2CCCN(C(=O)CN3CCSCC3)CC2)cc1 [Compound 121]", 103),
    ("CC(C)(C)c1cc(NC(=O)N2CCCN(C(=O)N3CCOCC3)CC2)on1 [Compound 225]", 106),
    ("O=C(Nc1ccc2ccccc2c1)N1CCCN(C(=O)c2cc(Cl)ccc2Cl)CC1 [Compound 90]", 91),
    ("Cc1ccc(C(=O)N2CCCN(C(=O)Nc3ccc(C(C)(C)C)cc3)CC2)cc1 [Compound 122]", 101),
    ("CC(C)(C)c1ccc(NC(=O)N2CCCN(C(=O)c3ccc(Cl)c(Cl)c3)CC2)cc1 [Compound 110]", 97),
    ("Cc1nc(NC(=O)N2CCCN(C(=O)C3CCOCC3)CC2)sc1C(C)(C)C [Compound 183]", 100),
    ("CCC(C)c1ccc(NC(=O)N2CCCN(C(=O)N3CCOCC3)CC2)cc1 (centres unmarked) [Compound 218]", 82),
    ("CC(C)(C)c1cc(NC(=O)N2CCCN(C(=O)C3CCCCCC3)CC2)no1 [Compound 152]", 104),
    ("CCC(C)c1ccc(NC(=O)N2CCCN(C(=O)C3CCOCC3)CC2)cc1 (centres unmarked) [Compound 133]", 97),
    ("O=C(Nc1nc(-c2ccccc2)cs1)N1CCCN(C(=O)c2ccc(Cl)cc2)CC1 [Compound 167]", 102),
    ("CC(C)(C)c1cc(NC(=O)N2CCCN(C(=O)CN3CCSCC3)CC2)no1 [Compound 227]", 102),
    ("O=C(Nc1ccc(C(F)(F)F)cc1)N1CCCN(C(=O)c2ccc(C(F)(F)F)cc2)CC1 [Compound 127]", 100),
    ("CCC(C)c1ccc(NC(=O)N2CCCN(C(=O)C3CCOCC3)CC2)nc1 (centres unmarked) [Compound 196]", 77),
    ("O=C(CC1CCCC1)N1CCCN(C(=O)Nc2ccc(SC(F)(F)F)cc2)CC1 [Compound 82]", 92),
    ("O=C(Nc1ccc2ccccc2c1)N1CCCN(C(=O)c2ccc(Cl)c(Cl)c2)CC1 [Compound 86]", 92),
    ("O=C(Nc1ccc(C(F)(F)F)cc1)N1CCCN(C(=O)C2CCCCC2)CC1 [Compound 128]", 107),
]

Hey, just so you know, these numbers are from patent US8173638B2.
